Attribution: PubChem BioAssay AID2060892

# System: HOP-62 complex spheroids with HUVEC/MSC, viability
# protocol-description: Anticancer human tumor HOP-62 cell line growth inhibition [RAS]
# details: second compound 0.0949 µM; first compound 3.16 µM; stronger effect = lower value
Entries and their viability, T/C
Dear colleague, please return just the value in %, with no unit written.

Q: Which value of viability, T/C has been reported for CC(Nc1ccc2c(c1)OCCn1cc(N3C(=O)OCC3C(F)F)nc1-2)C(N)=O (configuration not stated) + CCn1c(-c2cccnc2C(C)OC)c2c3cc(ccc31)N1CCOC(CC(NC(=O)C(C(C)C)N(C)C(=O)C3(F)CCN(C(=O)C#CC(C)(C)N(C)C)CC3)C(=O)N3CCCC(N3)C(=O)OCC(C)(C)C2)C1 in the records?
Ans: 20.1

Q: Query: viability, T/C; subject: Cc1nc(N2CCC3(CC2)COC(C)C3N)c(CO)nc1Sc1ccnc(N)c1Cl (configuration not stated) + CCn1c(-c2cc(N3CCN(C)CC3)cnc2C(C)OC)c2c3cc(ccc31)-c1csc(n1)CC(NC(=O)C1CC1C)C(=O)N1CCCC(N1)C(=O)OCC(C)(C)C2
Ans: 13.9

====

# Test system: HOP-62 complex spheroids with HUVEC/MSC, viability
# protocol-description: Anticancer human tumor HOP-62 cell line growth inhibition [RAS]; active = viability on the fitted dose curve at most 10% of control; inactive = the rest;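 note: spheroids exposed to agents for seven days before readout; 100% = DMSO vehicle control viability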
# details: second compound 0.00949 µM; first compound 3.16 µM
Classes to choose from: active, inactive

Consider the following illustrative entries.
compound	group-label
CC(Nc1ccc2c(c1)OCCn1cc(N3C(=O)OCC3C(F)F)nc1-2)C(N)=O (stereo not drawn) + CCn1c(-c2cc(N3CCN(C)CC3)cnc2C(C)OC)c2c3cc(ccc31)-c1csc(n1)CC(NC(=O)C1CC1C)C(=O)N1CCCC(N1)C(=O)OCC(C)(C)C2	inactive
C[C@@H](NC(=O)c1ncnc(N)c1Cl)c1ncc(C(=O)Nc2cc(C(F)(F)F)c(Cl)cn2)s1 + CCn1c(-c2cccnc2C(C)OC)c2c3cc(ccc31)N1CCOC(CC(NC(=O)C(C(C)C)N(C)C(=O)C3(F)CCN(C(=O)C#CC(C)(C)N(C)C)CC3)C(=O)N3CCCC(N3)C(=O)OCC(C)(C)C2)C1	inactive
CC(=O)OC12COC1CC(O)C1(C)C(=O)C(O)C3=C(C)C(OC(=O)C(O)C(NC(=O)OC(C)(C)C)c4ccccc4)CC(O)(C(OC(=O)c4ccccc4)C21)C3(C)C (stereo not drawn) + CCn1c(-c2cc(N3CCN(C)CC3)cnc2C(C)OC)c2c3cc(ccc31)-c1csc(n1)CC(NC(=O)C1CC1C)C(=O)N1CCCC(N1)C(=O)OCC(C)(C)C2	inactive
Cc1nc(N2CCC3(CC2)COC(C)C3N)c(CO)nc1Sc1ccnc(N)c1Cl (stereo not drawn) + CCn1c(-c2cccnc2C(C)OC)c2c3cc(ccc31)N1CCOC(CC(NC(=O)C(C(C)C)N(C)C(=O)C3(F)CCN(C(=O)C#CC(C)(C)N(C)C)CC3)C(=O)N3CCCC(N3)C(=O)OCC(C)(C)C2)C1	inactive

Q: Short answer needed: outcome of this test for CC1(O)CCCC1n1c(=O)c(C(F)F)cc2cnc(NC3CCN(S(C)(=O)=O)CC3)nc21 (stereo not drawn) + CCn1c(-c2cc(N3CCN(C)CC3)cnc2C(C)OC)c2c3cc(ccc31)-c1csc(n1)CC(NC(=O)C1CC1C)C(=O)N1CCCC(N1)C(=O)OCC(C)(C)C2 ?
Ans: inactive

Q: Identify the outcome logged in this assay for the compound shown: C[C@@H](NC(=O)c1ncnc(N)c1Cl)c1ncc(C(=O)Nc2cc(C(F)(F)F)c(Cl)cn2)s1 + CCn1c(-c2cc(N3CCN(C)CC3)cnc2C(C)OC)c2c3cc(ccc31)-c1csc(n1)CC(NC(=O)C1CC1C)C(=O)N1CCCC(N1)C(=O)OCC(C)(C)C2
Ans: inactive

Q: Recorded test outcome, item Cc1nc(N2CCC3(CC2)COC(C)C3N)c(CO)nc1Sc1ccnc(N)c1Cl (stereo not drawn) + CCn1c(-c2cc(N3CCN(C)CC3)cnc2C(C)OC)c2c3cc(ccc31)-c1csc(n1)CC(NC(=O)C1CC1C)C(=O)N1CCCC(N1)C(=O)OCC(C)(C)C2
Ans: inactive

Q: Which outcome was entered for the compound CCC(CC)c1cc(NC2CCC(N)C2)n2nccc2n1 (stereo not drawn) + CCn1c(-c2cccnc2C(C)OC)c2c3cc(ccc31)N1CCOC(CC(NC(=O)C(C(C)C)N(C)C(=O)C3(F)CCN(C(=O)C#CC(C)(C)N(C)C)CC3)C(=O)N3CCCC(N3)C(=O)OCC(C)(C)C2)C1 in this test?
Ans: active

====

# Tested on: HOP-62 complex spheroids with HUVEC/MSC, viability
# protocol-description: Anticancer human tumor HOP-62 cell line growth inhibition [RAS];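 note: spheroids exposed to agents for seven days before readout; 100% = DMSO vehicle control viability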
# details: second compound 0.0316 µM; first compound 0.316 µM; stronger effect = lower value
T if viability, T/C is below 30%. F if not; exact matches included in F.

For orientation, consider the following solved cases.
compound	group-label
C[C@@H](NC(=O)c1ncnc(N)c1Cl)c1ncc(C(=O)Nc2cc(C(F)(F)F)c(Cl)cn2)s1 + C#Cc1c(F)ccc2cc(O)cc(-c3ncc4c(N5CC6CCC(C5)N6)nc(OCC56CCCN5CC(F)C6)nc4c3F)c12	F
CC(C)NCC(C(=O)N1CCN(c2ncnc3c2C(C)CC3O)CC1)c1ccc(Cl)cc1 (stereo not given) + C#Cc1c(F)ccc2cc(O)cc(-c3ncc4c(N5CC6CCC(C5)N6)nc(OCC56CCCN5CC(F)C6)nc4c3F)c12	F
Cc1nc(N2CCC3(CC2)COC(C)C3N)c(CO)nc1Sc1ccnc(N)c1Cl (stereo not given) + C#Cc1c(F)ccc2cc(O)cc(-c3ncc4c(N5CC6CCC(C5)N6)nc(OCC56CCCN5CC(F)C6)nc4c3F)c12	F
CC(Nc1ccc2c(c1)OCCn1cc(N3C(=O)OCC3C(F)F)nc1-2)C(N)=O (stereo not given) + C=CC(=O)N1CCN(c2nc(OCC3CCCN3C)nc3c(F)c(-c4nc(N)cc(C)c4C(F)(F)F)c(Cl)cc23)C(C)C1	F
Nc1ccn(C2OC(CO)C(O)C2(F)F)c(=O)n1 (stereo not given) + C=CC(=O)N1CCN(c2nc(OCC3CCCN3C)nc3c(F)c(-c4nc(N)cc(C)c4C(F)(F)F)c(Cl)cc23)C(C)C1	T
C=CC(=O)N1CCN(c2nc(OCC3CCCN3C)nc3c(F)c(-c4nc(N)cc(C)c4C(F)(F)F)c(Cl)cc23)C(C)C1 (stereo not given) + C#Cc1c(F)ccc2cc(O)cc(-c3ncc4c(N5CC6CCC(C5)N6)nc(OCC56CCCN5CC(F)C6)nc4c3F)c12	F

Q: Does the reported viability, T/C of O=C(c1ccc(F)c(F)c1Nc1ccc(I)cc1F)N1CC(O)([C@@H]2CCCCN2)C1 + C=CC(=O)N1CCN(c2nc(OCC3CCCN3C)nc3c(F)c(-c4nc(N)cc(C)c4C(F)(F)F)c(Cl)cc23)C(C)C1 stay below 30%?
Ans: T

Q: In plain terms, does CCC(CC)c1cc(NC2CCC(N)C2)n2nccc2n1 (stereo not given) + C#Cc1c(F)ccc2cc(O)cc(-c3ncc4c(N5CC6CCC(C5)N6)nc(OCC56CCCN5CC(F)C6)nc4c3F)c12 come in under 30% for viability, T/C?
Ans: F

====

# System: HOP-62 complex spheroids with HUVEC/MSC, viability
# protocol-description: Anticancer human tumor HOP-62 cell line growth inhibition [RAS];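 note: spheroids exposed to agents for seven days before readout; 100% = DMSO vehicle control viability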
# details: second compound 0.00949 µM; first compound 0.316 µM; stronger effect = lower value
endpoint: viability, T/C (%)
All answers are understood in %, so give the number only.

compound	endpoint	endpoint-value
C=CC(=O)Nc1cc(Nc2nccc(-c3cn(C)c4ccccc34)n2)c(OC)cc1N(C)CCN(C)C + CCn1c(-c2cccnc2C(C)OC)c2c3cc(ccc31)N1CCOC(CC(NC(=O)C(C(C)C)N(C)C(=O)C3(F)CCN(C(=O)C#CC(C)(C)N(C)C)CC3)C(=O)N3CCCC(N3)C(=O)OCC(C)(C)C2)C1	viability, T/C	73.4

Moving on to another compound below.
Q: viability, T/C for C=CC(=O)Nc1cc(Nc2nccc(-c3cn(C)c4ccccc34)n2)c(OC)cc1N(C)CCN(C)C + CCn1c(-c2cc(N3CCN(C)CC3)cnc2C(C)OC)c2c3cc(ccc31)-c1csc(n1)CC(NC(=O)C1CC1C)C(=O)N1CCCC(N1)C(=O)OCC(C)(C)C2 ?
Ans: 47.3

====

# System: HOP-62 complex spheroids with HUVEC/MSC, viability
# protocol-description: Anticancer human tumor HOP-62 cell line growth inhibition [RAS];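 note: spheroids exposed to agents for seven days before readout; 100% = DMSO vehicle control viability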
# details: second compound 0.003 µM; first compound 0.01 µM; stronger effect = lower value
Okay, here is how we bin by viability, T/C: low band: < 70%; middle band: ≥ 70% and < 90%; high band: ≥ 90%

compound	tested-on	group-label
CCN1CCN(Cc2ccc(Nc3ncc(F)c(-c4cc(F)c5nc(C)n(C(C)C)c5c4)n3)nc2)CC1 + CCn1c(-c2cc(N3CCN(C)CC3)cnc2C(C)OC)c2c3cc(ccc31)-c1csc(n1)CC(NC(=O)C1CC1C)C(=O)N1CCCC(N1)C(=O)OCC(C)(C)C2	HOP-62 complex spheroids with HUVEC/MSC, viability	middle band
O=C(c1ccc(F)c(F)c1Nc1ccc(I)cc1F)N1CC(O)([C@@H]2CCCCN2)C1 + CCn1c(-c2cccnc2C(C)OC)c2c3cc(ccc31)N1CCOC(CC(NC(=O)C(C(C)C)N(C)C(=O)C3(F)CCN(C(=O)C#CC(C)(C)N(C)C)CC3)C(=O)N3CCCC(N3)C(=O)OCC(C)(C)C2)C1	HOP-62 complex spheroids with HUVEC/MSC, viability	high band
C=CC(=O)N1CCN(c2nc(OCC3CCCN3C)nc3c(F)c(-c4nc(N)cc(C)c4C(F)(F)F)c(Cl)cc23)C(C)C1 (configuration not stated) + CCn1c(-c2cccnc2C(C)OC)c2c3cc(ccc31)N1CCOC(CC(NC(=O)C(C(C)C)N(C)C(=O)C3(F)CCN(C(=O)C#CC(C)(C)N(C)C)CC3)C(=O)N3CCCC(N3)C(=O)OCC(C)(C)C2)C1	HOP-62 complex spheroids with HUVEC/MSC, viability	middle band
Nc1ccn(C2OC(CO)C(O)C2(F)F)c(=O)n1 (configuration not stated) + CCn1c(-c2cc(N3CCN(C)CC3)cnc2C(C)OC)c2c3cc(ccc31)-c1csc(n1)CC(NC(=O)C1CC1C)C(=O)N1CCCC(N1)C(=O)OCC(C)(C)C2	HOP-62 complex spheroids with HUVEC/MSC, viability	low band
C=CC(=O)N1CCN(c2nc(OCC3CCCN3C)nc3c(F)c(-c4nc(N)cc(C)c4C(F)(F)F)c(Cl)cc23)C(C)C1 (configuration not stated) + CCn1c(-c2cc(N3CCN(C)CC3)cnc2C(C)OC)c2c3cc(ccc31)-c1csc(n1)CC(NC(=O)C1CC1C)C(=O)N1CCCC(N1)C(=O)OCC(C)(C)C2	HOP-62 complex spheroids with HUVEC/MSC, viability	middle band

Q: Assign a category based on measured viability, T/C for O=C(c1ccc(F)c(F)c1Nc1ccc(I)cc1F)N1CC(O)([C@@H]2CCCCN2)C1 + CCn1c(-c2cc(N3CCN(C)CC3)cnc2C(C)OC)c2c3cc(ccc31)-c1csc(n1)CC(NC(=O)C1CC1C)C(=O)N1CCCC(N1)C(=O)OCC(C)(C)C2 and give only the class name.
Ans: middle band

Q: Which viability, T/C band matches Nc1ccn(C2OC(CO)C(O)C2(F)F)c(=O)n1 (configuration not stated) + CCn1c(-c2cccnc2C(C)OC)c2c3cc(ccc31)N1CCOC(CC(NC(=O)C(C(C)C)N(C)C(=O)C3(F)CCN(C(=O)C#CC(C)(C)N(C)C)CC3)C(=O)N3CCCC(N3)C(=O)OCC(C)(C)C2)C1 ?
Ans: low band
